B1: Twister Ribozyme (parent)
chain: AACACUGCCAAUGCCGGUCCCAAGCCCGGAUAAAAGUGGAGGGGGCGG

Variants of: B1
Test: self-cleavage, relative activity (ratio to wild type); higher = more cleavage; co-transcriptional
endpointName: self-cleavage

>  <variantString>
A40U G43C

>  <recordedMeasurement>
0.114

$$$$
>  <variantString>
C15A G29U

>  <recordedMeasurement>
0.607

$$$$
>  <variantString>
U12C G47A

>  <recordedMeasurement>
0.785

$$$$
>  <variantString>
C9G C21A

>  <recordedMeasurement>
0.0451

$$$$
>  <variantString>
U12A G28C

>  <recordedMeasurement>
1.02

$$$$
>  <variantString>
C20A G28A

>  <recordedMeasurement>
0.0974

$$$$
>  <variantString>
G41U G47U

>  <recordedMeasurement>
0.3

$$$$
>  <variantString>
C15G G24A

>  <recordedMeasurement>
0.0815

$$$$
>  <variantString>
A32U A35G

>  <recordedMeasurement>
0.746

$$$$
>  <variantString>
A2C A10C

>  <recordedMeasurement>
0.0739

$$$$
>  <variantString>
A30C C46A

>  <recordedMeasurement>
0.612

$$$$
>  <variantString>
C20U A22U

>  <recordedMeasurement>
0.543

$$$$
>  <variantString>
A34C G36U

>  <recordedMeasurement>
0.084

$$$$
>  <variantString>
C26U G38A

>  <recordedMeasurement>
0.157

$$$$
>  <variantString>
G13C A32U

>  <recordedMeasurement>
0.108

$$$$
>  <variantString>
A10U C20G

>  <recordedMeasurement>
0.131

$$$$
>  <variantString>
G7U C14G

>  <recordedMeasurement>
0.0477

$$$$
>  <variantString>
C5U C25G

>  <recordedMeasurement>
0.149

$$$$
>  <variantString>
C3U G36C

>  <recordedMeasurement>
0.0744

$$$$
>  <variantString>
C26U A32C

>  <recordedMeasurement>
0.451

$$$$
>  <variantString>
A4C G24A

>  <recordedMeasurement>
0.0887

$$$$
>  <variantString>
C9A G29A

>  <recordedMeasurement>
0.627

$$$$
>  <variantString>
C21A G39U

>  <recordedMeasurement>
0.0973

$$$$
>  <variantString>
G16U C26U

>  <recordedMeasurement>
0.15

$$$$
>  <variantString>
C14A C21G

>  <recordedMeasurement>
0.1

$$$$
>  <variantString>
G17U G39U

>  <recordedMeasurement>
0.108

$$$$
>  <variantString>
C14G G28U

>  <recordedMeasurement>
0.157

$$$$
>  <variantString>
U37A G44C

>  <recordedMeasurement>
0.821

$$$$
>  <variantString>
G7U A30G

>  <recordedMeasurement>
0.163

$$$$
>  <variantString>
C9A G45U

>  <recordedMeasurement>
0.232

$$$$
>  <variantString>
C8A G43C

>  <recordedMeasurement>
0.153

$$$$
>  <variantString>
C25U A35C

>  <recordedMeasurement>
0.779

$$$$
>  <variantString>
C8G G28U

>  <recordedMeasurement>
0.0873

$$$$
>  <variantString>
G29U A35C

>  <recordedMeasurement>
0.892

$$$$
>  <variantString>
C9A G47C

>  <recordedMeasurement>
0.221

$$$$
>  <variantString>
G28A A33U

>  <recordedMeasurement>
0.707

$$$$
>  <variantString>
A23C C26A

>  <recordedMeasurement>
0.199

$$$$
>  <variantString>
A35U G39C

>  <recordedMeasurement>
0.104

$$$$
>  <variantString>
C9U C27G

>  <recordedMeasurement>
0.0911

$$$$
>  <variantString>
G29C G42C

>  <recordedMeasurement>
0.174

$$$$
>  <variantString>
C9G A32C

>  <recordedMeasurement>
0.195

$$$$
